assay: Cytotoxicity (CC50) in MT4 cells, CellTiter-Glo; assay type: cell-based; conditions: human
ATTRIBUTE MEASURED: CC50 at 5 days

O=C(N[C@@H](c1ccc(F)cc1F)C(F)(F)F)c1cn2c(c(O)c1=O)C(=O)N1C(C2)O[C@H]2CC[C@@H]1C2 (some centres unmarked) [Compound 36] ... 13.5 µM
O=C(NCc1ccccc1F)c1cn2c(c(O)c1=O)C(=O)N1[C@@H]3CC[C@@H](C3)O[C@H]1C2 [Compound 23] ... 11.5 µM
O=C(NCc1ccc(F)cc1F)c1cn2c(c(O)c1=O)C(=O)N1C(C2)[N@]2CC[C@H]1C2 (some centres unmarked) [Compound 6] ... 53.2 µM
O=C(NCc1ccc(F)cc1F)c1cn2c(c(O)c1=O)C(=O)N1[C@@H]3CC[C@@H](C3)O[C@H]1C2 [Compound 3] ... 36.2 µM
C[C@@H](NC(=O)c1cn2c(c(O)c1=O)C(=O)N1[C@H]3CC[C@H](C3)O[C@@H]1C2)c1ccc(F)cc1F [Compound 12] ... 3.23 µM
O=C(NCc1ccc(F)c(C(F)(F)F)c1)c1cn2c(c(O)c1=O)C(=O)N1[C@@H]3CC[C@@H](C3)O[C@H]1C2 [Compound 25] ... 7.07 µM
O=C(NCc1ccc(F)cc1F)c1cn2c(c(O)c1=O)C(=O)N1[C@H]3CC[C@H](C3)O[C@@H]1C2 [Compound 2] ... 2.96 µM
O=C(NCc1ccc(Cl)c(F)c1)c1cn2c(c(O)c1=O)C(=O)N1[C@@H]3CC[C@@H](C3)O[C@H]1C2 [Compound 26] ... 11.5 µM

Provenance of the data: patent US20180215769A1
